# Test System: electric eel acetylcholinesterase (EeAChE) (Electrophorus electricus)
# Sequence (O42275 24-633): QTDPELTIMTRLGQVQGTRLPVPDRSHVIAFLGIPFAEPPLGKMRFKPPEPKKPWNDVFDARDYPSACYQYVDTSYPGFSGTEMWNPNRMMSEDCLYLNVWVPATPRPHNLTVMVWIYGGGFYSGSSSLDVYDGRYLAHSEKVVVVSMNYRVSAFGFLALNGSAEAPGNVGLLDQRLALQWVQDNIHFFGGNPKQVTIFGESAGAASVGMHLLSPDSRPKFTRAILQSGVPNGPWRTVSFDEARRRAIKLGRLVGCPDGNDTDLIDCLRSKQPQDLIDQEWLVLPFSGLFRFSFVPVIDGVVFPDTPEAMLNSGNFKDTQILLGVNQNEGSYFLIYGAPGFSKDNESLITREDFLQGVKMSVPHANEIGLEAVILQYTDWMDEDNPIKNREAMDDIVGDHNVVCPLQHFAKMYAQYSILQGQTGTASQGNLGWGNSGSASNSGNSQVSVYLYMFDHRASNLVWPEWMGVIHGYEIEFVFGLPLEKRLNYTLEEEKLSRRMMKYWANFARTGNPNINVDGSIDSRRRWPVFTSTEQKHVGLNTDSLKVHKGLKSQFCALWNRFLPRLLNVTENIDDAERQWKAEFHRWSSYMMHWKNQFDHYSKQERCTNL
# Test Method Notes: Enzymatic kinetic study, EeAChE
# Format: biochemical
# Experimental Context: AChE; corrected for tight-binding using the Morrison equation (Table S3); read-out: Ki ± SE (95% CI)
# Description: The enzymatic kinetics of cholinesterase inhibition were determined according to an adapted Ellman’s method. […] Ki, Ki’ (competitive and noncompetitive inhibition constants, respectively), Km (Michaelis-Menten constant), and Vmax values were calculated with Graphpad Prism v7.0 using the non-linear regression models for enzyme kinetics inhibition and enzyme kinetics–substrate vs. velocity.
pKi: −log10 of the molar value.
Reported Property: pKi

1) COc1cccc(Cn2cc(-c3cc4ccc(OCCN5CCCCC5)cc4oc3=O)nn2)c1 :: 9.20

====

# Test System: equine serum butyrylcholinesterase (EqBuChE) (Equus caballus, UniProt P81908)
# Construct: equine serum BChE [EqBChE]; from tissue; host or cells: equine serum
# Sequence (P81908 whole entry): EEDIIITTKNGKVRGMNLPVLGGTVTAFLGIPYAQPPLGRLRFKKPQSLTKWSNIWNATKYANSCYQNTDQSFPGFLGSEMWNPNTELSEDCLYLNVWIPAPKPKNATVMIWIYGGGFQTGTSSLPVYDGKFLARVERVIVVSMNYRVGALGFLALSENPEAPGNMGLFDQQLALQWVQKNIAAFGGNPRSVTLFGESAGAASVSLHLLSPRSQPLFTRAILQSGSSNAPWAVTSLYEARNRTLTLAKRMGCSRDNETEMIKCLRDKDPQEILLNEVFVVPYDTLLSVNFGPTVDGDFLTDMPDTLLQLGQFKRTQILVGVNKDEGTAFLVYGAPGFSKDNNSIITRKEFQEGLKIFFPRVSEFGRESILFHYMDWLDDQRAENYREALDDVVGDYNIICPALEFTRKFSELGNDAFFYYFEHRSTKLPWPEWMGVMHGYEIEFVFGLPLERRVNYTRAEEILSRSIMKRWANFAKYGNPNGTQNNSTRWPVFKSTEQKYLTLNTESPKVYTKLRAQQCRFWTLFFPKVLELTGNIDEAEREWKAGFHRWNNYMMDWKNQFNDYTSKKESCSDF
# Test Method Notes: Enzymatic kinetic study, EqBChE
# Type: biochemical
# Experimental Context: BChE; free enzyme (Table S3); read-out: Ki ± SE (95% CI)
pKi: −log10 of the molar value.
Reported Property: pKi

1) O=c1oc2cc(OCCN3CCCCC3)ccc2cc1-c1cn(-c2ccccc2)nn1 :: 5.40
2) COc1cccc(Cn2cc(-c3cc4ccc(OCCN5CCCCC5)cc4oc3=O)nn2)c1 :: 6.03
3) O=c1oc2cc(OCCN3CCCCC3)ccc2cc1-c1cn(Cc2ccccc2)nn1 :: 5.90

====

# Test System: UniProt:O42275
# Test Method Notes: biochemical
# Assay type: biochemical
# Experimental Context: Electric eel AChE; Ellman method; read-out: IC50(nM) ± SD AChE (EeAChE)
Reported Property: IC50 (nM)

1. O=c1oc2cc(OCCN3CCCCC3)ccc2cc1-c1cn(Cc2ccc(Cl)cc2)nn1 :: 104
2. CC1CCN(CCOc2ccc3cc(-c4cn(-c5ccccc5)nn4)c(=O)oc3c2)CC1 :: 1690
3. COc1ccccc1Cn1cc(-c2cc3ccc(OCCN4CCCCC4)cc3oc2=O)nn1 :: 15.3
4. O=c1oc2cc(OCCCCN3CCCCC3)ccc2cc1-c1cn(-c2ccccc2)nn1 :: 1110
5. O=c1oc2cc(OCCCN3CCCCC3)ccc2cc1-c1cn(-c2ccccc2)nn1 :: 1330
6. COc1cccc(Cn2cc(-c3cc4ccc(OCCN5CCCCC5)cc4oc3=O)nn2)c1 :: 4.16
7. O=c1oc2cc(OCCN3CCCCC3)ccc2cc1-c1cn(-c2ccccc2)nn1 :: 50
8. O=c1oc2cc(OCCN3CCNCC3)ccc2cc1-c1cn(-c2ccccc2)nn1 :: 1060
9. O=c1oc2cc(OCCCCCN3CCCCC3)ccc2cc1-c1cn(-c2ccccc2)nn1 :: 4790
10. CN1CCN(CCOc2ccc3cc(-c4cn(-c5ccccc5)nn4)c(=O)oc3c2)CC1 :: 3160
11. O=c1oc2cc(OCCN3CCCCC3)ccc2cc1-c1cn(Cc2ccc(F)cc2)nn1 :: 23.4
12. O=c1oc2cc(OCCN3CCCCC3)ccc2cc1-c1cn(Cc2ccccc2)nn1 :: 6.03
13. O=c1oc2cc(OCCN3CCCCC3)ccc2cc1-c1cn(Cc2cccc(Cl)c2)nn1 :: 13.1
14. O=c1oc2cc(OCCCN3CCCCC3)ccc2cc1-c1cn(Cc2ccccc2)nn1 :: 1950
15. COc1ccc(Cn2cc(-c3cc4ccc(OCCN5CCCCC5)cc4oc3=O)nn2)cc1 :: 4.58
16. O=c1oc2cc(OCCN3CCCCC3)ccc2cc1-c1cn(Cc2cccc(Br)c2)nn1 :: 7.92
17. O=c1oc2cc(OCCN3CCCCC3)ccc2cc1-c1cn(Cc2ccc(Br)cc2)nn1 :: 12.9
